B1: Histidine--tRNA ligase, cytoplasmic, residues 8 to 45; numbered along this chain, P12081 (parent)
chain: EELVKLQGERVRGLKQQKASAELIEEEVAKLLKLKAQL

Variants of: B1
Experiment: abundance fitness (aPCA) (normalised: wild type 0, dead -1); higher = more abundant; growth selection in yeast, the domain comes from the species named
Details: Homo sapiens
Note to self: class = bucket of abundance fitness, per low bracket: < -0.3; middle bracket: ≥ -0.3 and < -0.005; high bracket: ≥ -0.005

Please review the following examples before continuing.
R12M :: middle bracket
E2C :: low bracket
E27S :: middle bracket
E27N :: middle bracket
E26C :: middle bracket

Lab note: sort E1T into the matching abundance fitness band. low bracket

Lab note: sort E22A into the matching abundance fitness band. high bracket

Lab note: sort L38V into the matching abundance fitness band. middle bracket
